# measurementDescription: LD 50 in dogs
# Type: in vivo
# reportedConditions: dog, in vivo
# Description: LASSBio-294 has very low toxic effects. This was tested in whole mouse, rat, and dog models (Greaves, P. (1998) Exp. Toxicol. Pathol. 50, 283). These models are commonly used to predict toxicity in humans (Chou, W. L., Robbie G., Chung, S. M., Wu, T. C., and Ma, C. (1998) Pharm. Res. 15, 1474). […] These tests predict LASSBio-294 can be dosed in humans to achieve therapeutic plasma levels without significant risk of toxicity.
measuredAttribute: LD50 (mg/kg)

- molecule: "O=C(NN=Cc1cccs1)c1ccc2c(c1)OCO2 [LASSBio-294]"
  readingUnit: "mg/kg"
  experimentalValue: 1500
